Measured values drawn from PubChem BioAssay AID652175 for this set.

# test description: qHTS Assay for Lipid Storage Modulators: S3 Assay against Probe and Analogs
# measurement setup: Drosophila S3 cells, BODIPY lipid droplet fluorescence, 18-24 h, oleic acid added to induce droplets; series mostly up to 46.1 µM
Records with an inconclusive call do not appear. Active and inactive are the calls of the source. The call rests on the fitted dose curve; in most records, active means well fitted inhibition curve with a large enough effect; inconclusive means small, poorly fitted or top-dose-only effect; inactive means no such curve, though single readings can be large or run the other way.
Outcomes: active, inactive

[
  {
    "molecule": "COc1cccc(-n2ncc3c2CCCC3NC(=O)c2ccccn2)c1 (centres undefined)",
    "class label": "active"
  },
  {
    "molecule": "O=C(NCCc1ccc2c(c1)OCO2)c1cc2sccc2[nH]1",
    "class label": "inactive"
  },
  {
    "molecule": "Cn1c(=O)n(-c2ccc(C(C)(C)C#N)cc2)c2c3cc(-c4cnc5ccccc5c4)ccc3ncc21",
    "class label": "active"
  },
  {
    "molecule": "CN(C)CC(=O)NC1CCCc2c1cnn2-c1ccc(F)cc1F (centres undefined)",
    "class label": "inactive"
  },
  {
    "molecule": "CCOc1ccc(CCNC(=O)c2cc3sccc3n2Cc2ccccn2)cc1OCC",
    "class label": "active"
  },
  {
    "molecule": "CCOC(=O)C1CCN(C(=O)C(C)(C)NC(=O)Nc2cccc(OC)c2)CC1",
    "class label": "inactive"
  },
  {
    "molecule": "CC(NCc1ccc2c(c1)nc(NC(=O)c1ccc(-c3cn[nH]c3)s1)n2CC(C)(C)O)C(C)(C)C (centres undefined)",
    "class label": "inactive"
  },
  {
    "molecule": "O=C(NCCc1ccc(O)c(O)c1)c1cc2sccc2n1Cc1ccccc1",
    "class label": "inactive"
  },
  {
    "molecule": "COc1cc(C)c(Sc2cnc(NC(=O)c3ccc(CNC(C)C(C)(C)C)cc3)s2)cc1C(=O)N1CCN(C(C)=O)CC1 (centres undefined)",
    "class label": "inactive"
  }
]
